Target: T1, native (PBMC derived) human IL-13 (human, UniProt P35225 35-146, limits assumed)
T1 construct: IL-13 in supernatant of stimulated human CD4+ Th2 cells; also called native human IL-13; Native IL-13
T1 sequence (P35225 other isoform, or with tags, fused parts or gaps limits assumed): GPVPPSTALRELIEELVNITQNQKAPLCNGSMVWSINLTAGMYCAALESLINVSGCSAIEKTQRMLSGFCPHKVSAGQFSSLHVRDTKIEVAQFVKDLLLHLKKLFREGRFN
Assay: ELISA on Th2 cell supernatant read against a standard curve
measurement-type: Native IL-13 (ng/ml) detected in Th2 supernatant (ng/mL)
One number for each entry, in ng/mL.

Worked cases, Native IL-13 (ng/ml) detected in Th2 supernatant given:
binder	measure-unit	test-value
L1+A1 (antibody, human IgG1, kappa, V domains shown, Humanised 6A1, VH construct A1 and VL construct L1, human gamma1 wild type / kappa constant regions; also called A1L1; humanised anti-IL-13 mAb L1+A1) VH: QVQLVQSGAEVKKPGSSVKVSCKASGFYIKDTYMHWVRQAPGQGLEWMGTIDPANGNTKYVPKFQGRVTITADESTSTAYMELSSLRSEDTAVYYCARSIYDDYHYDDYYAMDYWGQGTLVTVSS VL: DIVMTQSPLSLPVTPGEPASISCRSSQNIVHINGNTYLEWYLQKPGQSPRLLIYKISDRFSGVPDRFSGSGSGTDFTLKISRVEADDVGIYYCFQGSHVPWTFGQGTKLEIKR	ng/mL	25.1
chimaeric 6A1 (antibody, human IgG1, V domains shown, Parent murine 6A1 V regions on human IgG1/k wild type C regions, expressed in CHO cells; also called 6A1c; 6A1 chimaeric antibody) VH: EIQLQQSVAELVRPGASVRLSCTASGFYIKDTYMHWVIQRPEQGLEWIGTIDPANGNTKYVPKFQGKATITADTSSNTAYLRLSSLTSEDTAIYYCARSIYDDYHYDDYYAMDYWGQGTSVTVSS VL: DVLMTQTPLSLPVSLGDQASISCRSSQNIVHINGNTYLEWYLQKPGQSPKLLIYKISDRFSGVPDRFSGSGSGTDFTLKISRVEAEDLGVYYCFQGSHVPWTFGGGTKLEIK	ng/mL	19.6
monoclonal antibody 6A1 (antibody, IgG1, V domains shown, also called 6A1 parental mAb; parental mouse mAb 6A1) VH: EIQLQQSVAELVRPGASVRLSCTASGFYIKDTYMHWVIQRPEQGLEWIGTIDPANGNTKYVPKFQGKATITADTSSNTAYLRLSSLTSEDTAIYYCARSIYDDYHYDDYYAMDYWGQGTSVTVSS VL: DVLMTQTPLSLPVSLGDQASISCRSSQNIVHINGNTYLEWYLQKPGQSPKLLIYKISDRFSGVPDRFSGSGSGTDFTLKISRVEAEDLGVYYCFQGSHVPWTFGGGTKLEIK	ng/mL	22.5

Now let's try a different one.
Value of measured Native IL-13 (ng/ml) detected in Th2 supernatant for the entry L2+A1 (antibody, human IgG1, kappa, V domains shown, Humanised 6A1, VH construct A1 and VL construct L2; also called A1L2) VH: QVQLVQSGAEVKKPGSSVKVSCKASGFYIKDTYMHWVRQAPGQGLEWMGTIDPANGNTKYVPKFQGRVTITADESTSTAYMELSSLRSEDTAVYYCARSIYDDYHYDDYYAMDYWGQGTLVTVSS VL: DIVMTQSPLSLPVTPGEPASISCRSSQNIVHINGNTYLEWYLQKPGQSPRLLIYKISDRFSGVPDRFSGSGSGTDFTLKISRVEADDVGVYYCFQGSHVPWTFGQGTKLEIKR : 22.7
